- Tested on: HeLa
- test_protocol: Cytotoxicity against human HeLa cells assessed as reduction in cell viability incubated for 48 hrs by MTT assay
- Format: functional, cell-based
readout_label: pIC50
Interpret pIC50 as the negative base-10 log of the concentration measured in mol/L.

// sample `Cc1ccc(Cn2n[n+](C)c3c2C(C)(C)[C@@H]2CC[C@]4(C)[C@H](CC[C@@H]5[C@H]6[C@H]7OC[C@@]6(CCC7(C)C)CC[C@]54C)[C@@]2(C)C3)cc1` , its pIC50 was 5.66

// sample `COc1cccc(CCn2nnc3c2C(C)(C)[C@@H]2CC[C@]4(C)[C@H](CC[C@@H]5[C@H]6[C@H]7OC[C@@]6(CCC7(C)C)CC[C@]54C)[C@@]2(C)C3)c1` , its pIC50 was 4.63

// sample `COc1ccc(CCn2n[n+](C)c3c2C(C)(C)[C@@H]2CC[C@]4(C)[C@H](CC[C@@H]5[C@H]6[C@H]7OC[C@@]6(CCC7(C)C)CC[C@]54C)[C@@]2(C)C3)cc1` , its pIC50 was 5.55

// sample `C[n+]1nn(Cc2ccccc2Cl)c2c1C[C@]1(C)[C@H]3CC[C@@H]4[C@H]5[C@H]6OC[C@@]5(CCC6(C)C)CC[C@@]4(C)[C@]3(C)CC[C@H]1C2(C)C` , its pIC50 was 5.57

// sample `CCCCn1n[n+](C)c2c1C(C)(C)[C@@H]1CC[C@]3(C)[C@H](CC[C@@H]4[C@H]5[C@H]6OC[C@@]5(CCC6(C)C)CC[C@]43C)[C@@]1(C)C2` , its pIC50 was 5.40

// sample `CC1(C)CC[C@]23CC[C@]4(C)[C@H](CC[C@@H]5[C@@]6(C)Cc7nnn(Cc8ccccc8Cl)c7C(C)(C)[C@@H]6CC[C@]54C)[C@H]2[C@H]1OC3` , its pIC50 was 4.38

// sample `COc1cccc2c1C(=O)c1c(O)c3c(c(O)c1C2=O)C[C@@](O)(C(=O)CO)C[C@@H]3O[C@H]1C[C@H](N)[C@H](O)[C@H](C)O1` , its pIC50 was 5.97

// sample `Cc1ccc(Cn2nnc3c2C(C)(C)[C@@H]2CC[C@]4(C)[C@H](CC[C@@H]5[C@H]6[C@H]7OC[C@@]6(CCC7(C)C)CC[C@]54C)[C@@]2(C)C3)cc1` , its pIC50 was 4.49

// sample `COc1ccccc1Cn1n[n+](C)c2c1C(C)(C)[C@@H]1CC[C@]3(C)[C@H](CC[C@@H]4[C@H]5[C@H]6OC[C@@]5(CCC6(C)C)CC[C@]43C)[C@@]1(C)C2.[I-]` , its pIC50 was 5.83
